Source: ChEMBL document CHEMBL3286253

Provide the recorded log10 of IC50 for the entries that follow.
target or test system: Cytochrome P450 3A4 (Homo sapiens, UniProt P08684)
Sequence (P08684 whole entry): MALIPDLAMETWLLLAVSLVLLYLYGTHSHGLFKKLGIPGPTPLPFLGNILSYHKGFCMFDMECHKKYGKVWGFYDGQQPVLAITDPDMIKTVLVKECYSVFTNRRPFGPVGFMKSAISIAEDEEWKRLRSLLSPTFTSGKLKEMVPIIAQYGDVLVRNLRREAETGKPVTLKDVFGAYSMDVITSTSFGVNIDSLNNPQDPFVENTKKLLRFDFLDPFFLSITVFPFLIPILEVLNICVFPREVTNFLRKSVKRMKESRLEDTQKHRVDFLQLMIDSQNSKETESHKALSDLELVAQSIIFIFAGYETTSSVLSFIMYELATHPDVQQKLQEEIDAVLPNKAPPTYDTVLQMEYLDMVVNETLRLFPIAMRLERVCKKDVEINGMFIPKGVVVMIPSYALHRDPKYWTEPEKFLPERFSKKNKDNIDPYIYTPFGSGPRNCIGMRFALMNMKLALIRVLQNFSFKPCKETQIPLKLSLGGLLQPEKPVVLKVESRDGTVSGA
test name: Inhibition of CYP3A4 in human liver microsomes using midazolam as substrate after 15 mins by LC/MS/MS analysis
Values reflect log10 of reported IC50 (µM).

# count of solved cases: 5
compound | target or test system | measured value
C=C[C@]1(C)C[C@@H](OC(=O)CSc2ccccn2)[C@]2(C)[C@H](C)CC[C@]3(CCC(=O)[C@H]32)[C@@H](C)[C@@H]1O | Cytochrome P450 3A4 (Homo sapiens, UniProt P08684) | 0.10
C=C[C@]1(C)C[C@@H](OC(=O)CSc2cncc(N)c2)[C@]2(C)[C@H](C)CC[C@]3(CCC(=O)[C@H]32)[C@@H](C)[C@@H]1O | Cytochrome P450 3A4 (Homo sapiens, UniProt P08684) | -0.87
C=C[C@]1(C)C[C@@H](OC(=O)CS[C@@H]2CC[C@@H](N)C[C@H]2O)[C@]2(C)[C@H](C)CC[C@]3(CCC(=O)[C@H]32)[C@@H](C)[C@@H]1O [LEFAMULIN] | Cytochrome P450 3A4 (Homo sapiens, UniProt P08684) | 0.67
C=C[C@]1(C)C[C@@H](OC(=O)CSc2cccc(CO)c2)[C@]2(C)[C@H](C)CC[C@]3(CCC(=O)[C@H]32)[C@@H](C)[C@@H]1O | Cytochrome P450 3A4 (Homo sapiens, UniProt P08684) | 0.29
C=C[C@]1(C)C[C@@H](OC(=O)CSc2cncc(NC(=O)CN3CCC(O)CC3)c2)[C@]2(C)[C@H](C)CC[C@]3(CCC(=O)[C@H]32)[C@@H](C)[C@@H]1O | Cytochrome P450 3A4 (Homo sapiens, UniProt P08684) | 0.28

Proceed to the following item.
Query C=C[C@]1(C)C[C@@H](OC(=O)CSc2cncc(NC(=O)CN3CCCC(O)C3)c2)[C@]2(C)[C@H](C)CC[C@]3(CCC(=O)[C@H]32)[C@@H](C)[C@@H]1O (stereo partly specified) on Cytochrome P450 3A4 (Homo sapiens, UniProt P08684); log10 of IC50 returned: 0.03

###

target or test system: Cytochrome P450 2D6 (Homo sapiens)
Sequence (P10635 whole entry): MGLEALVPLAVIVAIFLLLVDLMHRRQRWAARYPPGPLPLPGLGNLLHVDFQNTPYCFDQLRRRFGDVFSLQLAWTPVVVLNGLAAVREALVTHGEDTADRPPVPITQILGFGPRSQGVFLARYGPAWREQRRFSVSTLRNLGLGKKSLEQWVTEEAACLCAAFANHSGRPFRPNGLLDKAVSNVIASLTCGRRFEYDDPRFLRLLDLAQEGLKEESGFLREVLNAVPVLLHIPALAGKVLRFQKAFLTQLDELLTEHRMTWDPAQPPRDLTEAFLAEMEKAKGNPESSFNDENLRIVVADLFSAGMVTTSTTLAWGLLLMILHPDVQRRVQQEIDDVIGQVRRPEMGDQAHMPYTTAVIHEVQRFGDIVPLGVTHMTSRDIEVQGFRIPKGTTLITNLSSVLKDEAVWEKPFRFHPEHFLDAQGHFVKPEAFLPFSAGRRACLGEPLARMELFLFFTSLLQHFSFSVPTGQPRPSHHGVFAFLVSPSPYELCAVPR
pIC50: −log10 of the molar value.
Provide the recorded pIC50 for the entries that follow.

# count of solved cases: 3
compound | pIC50
C=C[C@]1(C)C[C@@H](OC(=O)CSc2ccccn2)[C@]2(C)[C@H](C)CC[C@]3(CCC(=O)[C@H]32)[C@@H](C)[C@@H]1O | < 5.00
C=C[C@]1(C)C[C@@H](OC(=O)CSc2cncc(N)c2)[C@]2(C)[C@H](C)CC[C@]3(CCC(=O)[C@H]32)[C@@H](C)[C@@H]1O | 4.77
C=C[C@]1(C)C[C@@H](OC(=O)CSc2cncc(NC(=O)CN3CCCC(O)C3)c2)[C@]2(C)[C@H](C)CC[C@]3(CCC(=O)[C@H]32)[C@@H](C)[C@@H]1O (stereo partly specified) | < 4.60

Each compound below has a recorded value; state its pIC50.
1. C=C[C@]1(C)C[C@@H](OC(=O)CS[C@@H]2CC[C@@H](N)C[C@H]2O)[C@]2(C)[C@H](C)CC[C@]3(CCC(=O)[C@H]32)[C@@H](C)[C@@H]1O
2. C=C[C@]1(C)C[C@@H](OC(=O)CSc2cccc(CO)c2)[C@]2(C)[C@H](C)CC[C@]3(CCC(=O)[C@H]32)[C@@H](C)[C@@H]1O
3. C=C[C@]1(C)C[C@@H](OC(=O)CSc2cncc(NC(=O)CN3CCC(O)CC3)c2)[C@]2(C)[C@H](C)CC[C@]3(CCC(=O)[C@H]32)[C@@H](C)[C@@H]1O

1: < 4.60; 2: < 4.60; 3: 4.95

###

Provide the recorded half-life for the entries that follow.
test name: Elimination half life in Sprague-Dawley rat at 10 mg/kg, iv
Assay type: ADME, organism-based
Parameters: dose 10 mg/kg, route intravenous
run conditions: in vivo, read-out: beta t1/2 (converted)
A complete answer gives the number and then names the unit.

structure notation | half-life
C=C[C@]1(C)C[C@@H](OC(=O)CSc2cncc(CO)c2)[C@]2(C)[C@H](C)CC[C@]3(CCC(=O)[C@H]32)[C@@H](C)[C@@H]1O | 6 h

Proceed to the following item.
Reported half-life of C=C[C@]1(C)C[C@@H](OC(=O)CSc2cncc(COP(=O)([O-])[O-])c2)[C@]2(C)[C@H](C)CC[C@]3(CCC(=O)[C@H]32)[C@@H](C)[C@@H]1O.[Na+].[Na+] : 6.37 h

###

test name: Mean residence time in Sprague-Dawley rat at 2 mg/kg, iv administered as cassette dosing
Format: ADME, organism-based
Set-up: dose 2 mg/kg, route intravenous
run conditions: in vivo
Provide the recorded MRT for the entries that follow.
Numbers only, in min.

# count of solved cases: 4
compound | measured value
C=C[C@]1(C)C[C@@H](OC(=O)CSc2cncc(NC(=O)CN3CCCC(O)C3)c2)[C@]2(C)[C@H](C)CC[C@]3(CCC(=O)[C@H]32)[C@@H](C)[C@@H]1O (stereo not given in full) | 28.8
C=C[C@]1(C)C[C@@H](OC(=O)CSc2cncc(NC(=O)[C@@H](N)CC(C)C)c2)[C@]2(C)[C@H](C)CC[C@]3(CCC(=O)[C@H]32)[C@@H](C)[C@@H]1O | 21
C=C[C@]1(C)C[C@@H](OC(=O)CSc2cncc(NC(=O)CN3CCC(O)CC3)c2)[C@]2(C)[C@H](C)CC[C@]3(CCC(=O)[C@H]32)[C@@H](C)[C@@H]1O | 36.6
C=C[C@]1(C)C[C@@H](OC(=O)CS[C@@H]2CC[C@@H](N)C[C@H]2O)[C@]2(C)[C@H](C)CC[C@]3(CCC(=O)[C@H]32)[C@@H](C)[C@@H]1O | 228

Proceed to the following item.
Reported MRT of C=C[C@]1(C)C[C@@H](OC(=O)CSc2cncc(NC(=O)CN)c2)[C@]2(C)[C@H](C)CC[C@]3(CCC(=O)[C@H]32)[C@@H](C)[C@@H]1O : 16.8

###

test name: Tmax in Sprague-Dawley rat at 10 mg/kg, iv
Assay type: ADME, organism-based
Design: dose 10 mg/kg, route intravenous
run conditions: in vivo
quantity: Tmax

Reported Tmax of C=C[C@]1(C)C[C@@H](OC(=O)CSc2cncc(COP(=O)([O-])[O-])c2)[C@]2(C)[C@H](C)CC[C@]3(CCC(=O)[C@H]32)[C@@H](C)[C@@H]1O.[Na+].[Na+] : 4.8 min

###

target or test system: Cytochrome P450 2C19 (Homo sapiens, UniProt P33261)
Sequence (P33261 whole entry): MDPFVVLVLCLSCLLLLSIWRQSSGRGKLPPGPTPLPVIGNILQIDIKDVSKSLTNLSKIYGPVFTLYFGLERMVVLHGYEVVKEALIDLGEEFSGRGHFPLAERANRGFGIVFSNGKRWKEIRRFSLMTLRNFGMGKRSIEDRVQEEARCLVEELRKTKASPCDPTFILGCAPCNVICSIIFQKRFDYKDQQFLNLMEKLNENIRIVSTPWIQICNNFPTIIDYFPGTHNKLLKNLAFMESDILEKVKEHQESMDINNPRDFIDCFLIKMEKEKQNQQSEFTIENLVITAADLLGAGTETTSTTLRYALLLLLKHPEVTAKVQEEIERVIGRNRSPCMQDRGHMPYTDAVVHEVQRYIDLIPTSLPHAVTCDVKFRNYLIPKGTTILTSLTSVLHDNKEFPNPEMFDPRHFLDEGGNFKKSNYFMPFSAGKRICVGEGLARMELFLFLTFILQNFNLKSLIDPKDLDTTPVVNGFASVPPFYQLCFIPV
test name: Inhibition of CYP2C19 in human liver microsomes using mephenytoin as substrate after 15 mins by LC/MS/MS analysis
Provide the recorded pIC50 for the entries that follow.
Answers are plain numbers, as −log10 of the molar value.

compound | pIC50
C=C[C@]1(C)C[C@@H](OC(=O)CSc2cncc(N)c2)[C@]2(C)[C@H](C)CC[C@]3(CCC(=O)[C@H]32)[C@@H](C)[C@@H]1O | 4.81
C=C[C@]1(C)C[C@@H](OC(=O)CSc2cncc(NC(=O)CN3CCCC(O)C3)c2)[C@]2(C)[C@H](C)CC[C@]3(CCC(=O)[C@H]32)[C@@H](C)[C@@H]1O (stereo partly specified) | 4.91

Reported pIC50 of C=C[C@]1(C)C[C@@H](OC(=O)CSc2cccc(CO)c2)[C@]2(C)[C@H](C)CC[C@]3(CCC(=O)[C@H]32)[C@@H](C)[C@@H]1O : 4.81

###

Provide the recorded half-life for the entries that follow.
test name: Elimination half life in Sprague-Dawley rat at 2 mg/kg, iv administered as cassette dosing
Format: ADME, organism-based
Parameters: dose 2 mg/kg, route intravenous
run conditions: in vivo, read-out: beta t1/2 (converted)
Answers are plain numbers, in min.

molecule | half-life, min
C=C[C@]1(C)C[C@@H](OC(=O)CSc2cncc(NC(=O)CN3CCC(O)CC3)c2)[C@]2(C)[C@H](C)CC[C@]3(CCC(=O)[C@H]32)[C@@H](C)[C@@H]1O | 40.2
C=C[C@]1(C)C[C@@H](OC(=O)CSc2cncc(NC(=O)CN)c2)[C@]2(C)[C@H](C)CC[C@]3(CCC(=O)[C@H]32)[C@@H](C)[C@@H]1O | 20.4
C=C[C@]1(C)C[C@@H](OC(=O)CS[C@@H]2CC[C@@H](N)C[C@H]2O)[C@]2(C)[C@H](C)CC[C@]3(CCC(=O)[C@H]32)[C@@H](C)[C@@H]1O | 264

Each molecule below has a recorded value; state its half-life.
1. C=C[C@]1(C)C[C@@H](OC(=O)CSc2cncc(NC(=O)CN3CCCC(O)C3)c2)[C@]2(C)[C@H](C)CC[C@]3(CCC(=O)[C@H]32)[C@@H](C)[C@@H]1O (stereo not given in full)
2. C=C[C@]1(C)C[C@@H](OC(=O)CSc2cncc(NC(=O)[C@@H](N)CC(C)C)c2)[C@]2(C)[C@H](C)CC[C@]3(CCC(=O)[C@H]32)[C@@H](C)[C@@H]1O

1: 40.2; 2: 37.8
